Molecular target: FP1 (Plasmodium falciparum, UniProt P25805)
Sequence (P25805 333-569): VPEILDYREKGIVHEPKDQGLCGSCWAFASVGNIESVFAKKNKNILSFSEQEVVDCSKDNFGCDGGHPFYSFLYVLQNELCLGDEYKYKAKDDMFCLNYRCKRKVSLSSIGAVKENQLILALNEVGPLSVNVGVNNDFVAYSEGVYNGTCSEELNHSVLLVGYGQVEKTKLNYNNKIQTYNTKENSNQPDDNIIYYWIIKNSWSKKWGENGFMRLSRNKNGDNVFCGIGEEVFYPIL
Test: Falcipain inhibition in living parasites
PROPERTY MEASURED: pIC50
Value format note: pIC50 is -log10 of concentration (mol/L); just state the number.

I would be grateful if you could share the reported pIC50 for CC[C@H](C)[C@@H](C(=O)O[C@@H](CC(C)C)C(=O)N[C@@H](CC(C)C)C(=O)N[C@@H](C)/C=C/C(=O)N1C(=O)C=C(OC)[C@@H]1C)N(C)C .
6.85
